# measurementProtocol: In vivo plasma pharmacokinetics in Balb-C mice (HPLC)
# testParameters: mouse, plasma, oral dose equivalent to 10 mg/kg along with milk, read-out: AUC0–24 h
metric: AUC(0-t) (µg·h/mL)
Answer with a number only, understood to be in µg·h/mL.

Record C[C@@H]1CCO[C@H]2Cn3cc(C(=O)NCc4ccc(F)cc4F)c(=O)c(O)c3C(=O)N12 , field AUC(0-t): 405

----------
# measurementProtocol: Organ biodistribution of DTG in mice (HPLC)
# Type: in vivo
# testParameters: mouse, kidney; Balb-C mice, IV, 10 mg/kg; read-out: AUC of biodistribution of DTG in kidney
metric: AUC (ng·h/mL)
Answer with a number only, understood to be in ng·h/mL.

Record C[C@@H]1CCO[C@H]2Cn3cc(C(=O)NCc4ccc(F)cc4F)c(=O)c(O)c3C(=O)N12 [DTG, Dolutegravir] , field AUC: 3800

----------
# measurementProtocol: In vivo plasma pharmacokinetics in Balb-C mice (HPLC)
# testParameters: mouse, plasma, 10 mg/kg, intravenous route, read-out: Vd
metric: Vd (L/kg)
Answer with a number only, understood to be in L/kg.

Record C[C@@H]1CCO[C@H]2Cn3cc(C(=O)NCc4ccc(F)cc4F)c(=O)c(O)c3C(=O)N12 , field Vd: 1.87

----------
# measurementProtocol: Organ biodistribution of DTG in mice (HPLC)
# Format: in vivo
# testParameters: mouse, heart; Balb-C mice, IV, 10 mg/kg; read-out: AUC of biodistribution of DTG in heart
metric: AUC (ng·h/mL)
Answer with a number only, understood to be in ng·h/mL.

Record C[C@@H]1CCO[C@H]2Cn3cc(C(=O)NCc4ccc(F)cc4F)c(=O)c(O)c3C(=O)N12 , field AUC: 2000

----------
# measurementProtocol: Organ biodistribution of DTG in mice (HPLC)
# Assay type: in vivo
# testParameters: mouse, brain; Balb-C mice, IV, 10 mg/kg; read-out: AUC of biodistribution of DTG in brain
metric: AUC
Field note: include the unit after the figure.

Record C[C@@H]1CCO[C@H]2Cn3cc(C(=O)NCc4ccc(F)cc4F)c(=O)c(O)c3C(=O)N12 , field AUC: 2400 ng·h/mL

----------
# measurementProtocol: Organ biodistribution of DTG in mice (HPLC)
# Assay type: in vivo
# testParameters: mouse, liver; Balb-C mice, oral with milk, 10 mg/kg equivalent; read-out: AUC of biodistribution of DTG in liver
metric: AUC (ng·h/mL)
Answer with a number only, understood to be in ng·h/mL.

Record C[C@@H]1CCO[C@H]2Cn3cc(C(=O)NCc4ccc(F)cc4F)c(=O)c(O)c3C(=O)N12 , field AUC: 7200

----------
# measurementProtocol: In vivo plasma pharmacokinetics in Balb-C mice (HPLC)
# testParameters: mouse, plasma, 10 mg/kg, intravenous route
metric: Tmax (h)
Answer with a number only, understood to be in h.

Record C[C@@H]1CCO[C@H]2Cn3cc(C(=O)NCc4ccc(F)cc4F)c(=O)c(O)c3C(=O)N12 , field Tmax: 7

----------
# measurementProtocol: In vivo plasma pharmacokinetics in Balb-C mice (HPLC)
# testParameters: mouse, plasma, oral dose equivalent to 10 mg/kg along with milk
metric: MRT (h)
Answer with a number only, understood to be in h.

Record C[C@@H]1CCO[C@H]2Cn3cc(C(=O)NCc4ccc(F)cc4F)c(=O)c(O)c3C(=O)N12 , field MRT: 10.1

----------
# measurementProtocol: Organ biodistribution of DTG in mice (HPLC)
# Assay type: in vivo
# testParameters: mouse, liver; Balb-C mice, IV, 10 mg/kg; read-out: AUC of biodistribution of DTG in liver
metric: AUC (ng·h/mL)
Answer with a number only, understood to be in ng·h/mL.

Record C[C@@H]1CCO[C@H]2Cn3cc(C(=O)NCc4ccc(F)cc4F)c(=O)c(O)c3C(=O)N12 [DTG, Dolutegravir] , field AUC: 4600

----------
# measurementProtocol: In vivo plasma pharmacokinetics in Balb-C mice (HPLC)
# testParameters: mouse, plasma, oral dose equivalent to 10 mg/kg along with milk
# Source text: The pharmaceutical grade working standards of Dolutegravir were obtained as a gift from MSN Laboratories Hyderabad, India. […] After validating the developed HPLC method, the same was utilized to quantify the drug present in the plasma and organ (lungs, liver, kidney, heart, brain, and uterus) samples collected at predetermined time points. […]
metric: Tmax (h)
Answer with a number only, understood to be in h.

Record C[C@@H]1CCO[C@H]2Cn3cc(C(=O)NCc4ccc(F)cc4F)c(=O)c(O)c3C(=O)N12 [DTG, Dolutegravir] , field Tmax: 7

----------
# measurementProtocol: In vivo plasma pharmacokinetics in Balb-C mice (HPLC)
# testParameters: mouse, plasma, 10 mg/kg, intravenous route
metric: half-life (h)
Answer with a number only, understood to be in h.

Record C[C@@H]1CCO[C@H]2Cn3cc(C(=O)NCc4ccc(F)cc4F)c(=O)c(O)c3C(=O)N12 , field half-life: 10.5

----------
# measurementProtocol: Organ biodistribution of DTG in mice (HPLC)
# Assay type: in vivo
# testParameters: mouse, heart; Balb-C mice, oral with milk, 10 mg/kg equivalent; read-out: AUC of biodistribution of DTG in heart
# Method: After validating the developed HPLC method, the same was utilized to quantify the drug present in the plasma and organ (lungs, liver, kidney, heart, brain, and uterus) samples collected at predetermined time points. […] The concentration of the drug in each sample was determined by the developed HPLC method, followed by the pharmacokinetic parameters and biodistribution pattern evaluation.
metric: AUC (ng·h/mL)
Answer with a number only, understood to be in ng·h/mL.

Record C[C@@H]1CCO[C@H]2Cn3cc(C(=O)NCc4ccc(F)cc4F)c(=O)c(O)c3C(=O)N12 , field AUC: 2100

----------
# measurementProtocol: Organ biodistribution of DTG in mice (HPLC)
# Format: in vivo
# testParameters: mouse, uterus; Balb-C mice, oral with milk, 10 mg/kg equivalent; read-out: AUC of biodistribution of DTG in uterus
metric: AUC (ng·h/mL)
Answer with a number only, understood to be in ng·h/mL.

Record C[C@@H]1CCO[C@H]2Cn3cc(C(=O)NCc4ccc(F)cc4F)c(=O)c(O)c3C(=O)N12 , field AUC: 1500

----------
# measurementProtocol: Organ biodistribution of DTG in mice (HPLC)
# Format: in vivo
# testParameters: mouse, brain; Balb-C mice, oral with milk, 10 mg/kg equivalent; read-out: AUC of biodistribution of DTG in brain
# Procedure: After validating the developed HPLC method, the same was utilized to quantify the drug present in the plasma and organ (lungs, liver, kidney, heart, brain, and uterus) samples collected at predetermined time points. […] The concentration of the drug in each sample was determined by the developed HPLC method, followed by the pharmacokinetic parameters and biodistribution pattern evaluation.
metric: AUC (ng·h/mL)
Answer with a number only, understood to be in ng·h/mL.

Record C[C@@H]1CCO[C@H]2Cn3cc(C(=O)NCc4ccc(F)cc4F)c(=O)c(O)c3C(=O)N12 [DTG, Dolutegravir] , field AUC: 2600

----------
# measurementProtocol: In vivo plasma pharmacokinetics in Balb-C mice (HPLC)
# testParameters: mouse, plasma, 10 mg/kg, intravenous route
metric: MRT
Field note: include the unit after the figure.

Record C[C@@H]1CCO[C@H]2Cn3cc(C(=O)NCc4ccc(F)cc4F)c(=O)c(O)c3C(=O)N12 [DTG, Dolutegravir] , field MRT: 12.1 h

----------
# measurementProtocol: In vivo plasma pharmacokinetics in Balb-C mice (HPLC)
# testParameters: mouse, plasma, oral dose equivalent to 10 mg/kg along with milk
metric: half-life (h)
Answer with a number only, understood to be in h.

Record C[C@@H]1CCO[C@H]2Cn3cc(C(=O)NCc4ccc(F)cc4F)c(=O)c(O)c3C(=O)N12 , field half-life: 11.7

----------
# measurementProtocol: In vivo plasma pharmacokinetics in Balb-C mice (HPLC)
# testParameters: mouse, plasma, 10 mg/kg, intravenous route, read-out: Clearance (converted)
metric: clearance

Record C[C@@H]1CCO[C@H]2Cn3cc(C(=O)NCc4ccc(F)cc4F)c(=O)c(O)c3C(=O)N12 , field clearance: 8.17 mL/min

----------
# measurementProtocol: In vivo plasma pharmacokinetics in Balb-C mice (HPLC)
# testParameters: mouse, plasma, oral dose equivalent to 10 mg/kg along with milk, read-out: Ke (converted)
metric: k el (s⁻¹)
Answer with a number only, understood to be in s⁻¹.

Record C[C@@H]1CCO[C@H]2Cn3cc(C(=O)NCc4ccc(F)cc4F)c(=O)c(O)c3C(=O)N12 [DTG, Dolutegravir] , field k el: 1.64e-05

----------
# measurementProtocol: In vivo plasma pharmacokinetics in Balb-C mice (HPLC)
# testParameters: mouse, plasma, 10 mg/kg, intravenous route, read-out: AUC0–24 h
# Excerpt: The pharmaceutical grade working standards of Dolutegravir were obtained as a gift from MSN Laboratories Hyderabad, India. […] After validating the developed HPLC method, the same was utilized to quantify the drug present in the plasma and organ (lungs, liver, kidney, heart, brain, and uterus) samples collected at predetermined time points. […]
metric: AUC(0-t) (µg·h/mL)
Answer with a number only, understood to be in µg·h/mL.

Record C[C@@H]1CCO[C@H]2Cn3cc(C(=O)NCc4ccc(F)cc4F)c(=O)c(O)c3C(=O)N12 , field AUC(0-t): 411
